Molecular target: T1, MD2 bait construct (mIP3R1: 1387-1647 amino acids) in pGBT9 (mouse, UniProt P11881 1387-1647)
T1 construct: also called IP3R1 modulatory domain bait 2; not shown: fusion partner encoded by the bait vector pGBT9 and primer-encoded linker
T1 sequence (P11881 1387-1647): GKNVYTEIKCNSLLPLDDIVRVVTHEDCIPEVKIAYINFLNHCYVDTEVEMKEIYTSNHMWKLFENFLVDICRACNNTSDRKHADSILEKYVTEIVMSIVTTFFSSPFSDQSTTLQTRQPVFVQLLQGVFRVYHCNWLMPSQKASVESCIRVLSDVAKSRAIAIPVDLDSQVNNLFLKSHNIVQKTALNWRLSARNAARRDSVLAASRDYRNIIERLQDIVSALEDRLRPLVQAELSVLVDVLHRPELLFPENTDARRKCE
Assay: yeast two-hybrid beta-gal assay
Method: To determine the respective interaction domains of CARP and IP_3R1, truncated mutants of both genes were prepared and analyzed using yeast two-hybrid system. […] Interactions between CARP mutants and MD2, CARP and IP_3R1 mutants were analyzed by β-gal assay by the yeast two-hybrid system. […]

# binder, binding result
measured = [
    ("pGAD-GL-ΔC2 (CARP; 1-147 amino acids) (other, Yeast two-hybrid truncation construct; not shown: fusion partner encoded by vector pGAD-GL) MADLSFIEDAVAFPEKEEDEEEEEEEGVEWGYEEGVEWGLVFPDANGEYQSPINLNSREARYDPSLLDVRLSPNYVVCRDCEVTNDGHTIQVILKSKSVLSGGPLPGGQEFELYEVRFHWGRENQRGSEHTVNFKAFPMELHLIHWN", "no binding"),
    ("pGAD-GL-ΔC3 (CARP; 1-170 amino acids) (other, Yeast two-hybrid truncation construct; not shown: fusion partner encoded by vector pGAD-GL) MADLSFIEDAVAFPEKEEDEEEEEEEGVEWGYEEGVEWGLVFPDANGEYQSPINLNSREARYDPSLLDVRLSPNYVVCRDCEVTNDGHTIQVILKSKSVLSGGPLPGGQEFELYEVRFHWGRENQRGSEHTVNFKAFPMELHLIHWNSTLFGSIDEAVGKPHGIAIIALF", "no binding"),
    ("pGAD-GL-ΔC4 (CARP; 1-180 amino acids) (other, Yeast two-hybrid truncation construct; not shown: fusion partner encoded by vector pGAD-GL) MADLSFIEDAVAFPEKEEDEEEEEEEGVEWGYEEGVEWGLVFPDANGEYQSPINLNSREARYDPSLLDVRLSPNYVVCRDCEVTNDGHTIQVILKSKSVLSGGPLPGGQEFELYEVRFHWGRENQRGSEHTVNFKAFPMELHLIHWNSTLFGSIDEAVGKPHGIAIIALFVQIGKEHVGL", "no binding"),
]
